assay: Plasma clearance in C57BL/6 mouse at 1 mg/kg, iv; format: ADME, organism-based; design: dose 1 mg/kg, route intravenous
Measured Metric: clearance (mL/min/kg)
Quick note: give the figure in mL/min/kg, leave out the unit.

Hello, please tell me recorded clearance for this one: CC(C)CC(=O)Nc1nnc2n1CCS2
17

* * *

molecular target: Poly [ADP-ribose] polymerase 1 (Homo sapiens)
Sequence (P09874 whole entry): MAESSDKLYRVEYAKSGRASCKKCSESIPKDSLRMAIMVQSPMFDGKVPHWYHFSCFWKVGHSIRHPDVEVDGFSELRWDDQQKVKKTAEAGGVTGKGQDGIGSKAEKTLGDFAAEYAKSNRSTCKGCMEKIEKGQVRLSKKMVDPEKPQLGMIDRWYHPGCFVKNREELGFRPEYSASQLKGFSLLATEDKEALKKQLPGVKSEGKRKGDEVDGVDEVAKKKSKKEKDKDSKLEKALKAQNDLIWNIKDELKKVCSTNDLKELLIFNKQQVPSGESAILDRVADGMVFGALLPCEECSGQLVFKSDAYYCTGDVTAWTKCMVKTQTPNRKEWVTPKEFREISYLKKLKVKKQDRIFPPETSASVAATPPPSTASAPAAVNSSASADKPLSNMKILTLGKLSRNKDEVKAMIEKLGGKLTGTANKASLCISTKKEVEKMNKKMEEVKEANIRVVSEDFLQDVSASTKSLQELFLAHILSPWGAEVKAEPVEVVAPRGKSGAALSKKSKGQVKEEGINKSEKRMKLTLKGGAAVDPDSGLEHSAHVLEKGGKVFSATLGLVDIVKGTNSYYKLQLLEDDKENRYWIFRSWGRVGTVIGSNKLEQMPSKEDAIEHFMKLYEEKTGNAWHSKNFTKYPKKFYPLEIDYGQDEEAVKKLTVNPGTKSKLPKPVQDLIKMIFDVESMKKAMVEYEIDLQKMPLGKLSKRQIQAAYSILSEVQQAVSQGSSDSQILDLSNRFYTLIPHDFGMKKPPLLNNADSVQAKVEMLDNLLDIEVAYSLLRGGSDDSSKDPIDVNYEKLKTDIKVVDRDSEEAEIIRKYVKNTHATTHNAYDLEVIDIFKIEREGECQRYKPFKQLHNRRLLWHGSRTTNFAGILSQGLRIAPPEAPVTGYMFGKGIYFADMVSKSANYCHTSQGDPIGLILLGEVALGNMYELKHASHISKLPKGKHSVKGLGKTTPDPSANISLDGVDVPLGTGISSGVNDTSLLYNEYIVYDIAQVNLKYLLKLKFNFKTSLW
pIC50: −log10 of the molar value.
Measured Metric: pIC50

Enter measured pIC50, system Poly [ADP-ribose] polymerase 1 (Homo sapiens), for the compound shown: O=C(CCc1cccc(Cl)c1Cl)Nc1nnc2n1CCS2
< 4.72

* * *

test: Hepatic extraction ratio in mouse liver microsomes; type: ADME, Microsome; conditions: read-out: ERH
# strict inequality: hepatic extraction ratio < 0.9 yields condition met, everything else yields condition not met

CC(C)(C)c1ccc(C(=O)Nc2nnc3n2CCS3)cc1; condition met
O=C(CCC1CCCCC1)Nc1nnc2n1CCS2; condition not met

Next, consider the following compound.
Consider CC(C)CC(=O)Nc1nnc2n1CCS2 . Does its hepatic extraction ratio lie strictly below 0.9?
condition met

* * *

assay: Oral bioavailability in C57BL/6 mouse at 5 mg/kg; type: ADME, organism-based; details: in vivo
Measured Metric: bioavailability (%)
Quick note: give the figure in %, leave out the unit.

Hello, please tell me recorded bioavailability for this one: CC(C)CC(=O)Nc1nnc2n1CCS2
36

* * *

experiment: Inhibition of Wnt signaling in human HEK293 cells by STF luciferase reporter gene assay
Measured Metric: pIC50
Scale note: pIC50 = -log10(concentration in M).

O=C(NCc1ccccc1)Nc1nnc2n1CCS2; 4.75
O=C(CCc1ccncc1)Nc1nnc2n1CCS2; 4.90
O=C(CC1CCCCC1)Nc1nnc2n1CCS2; 6.37
O=C(CCCc1ccccc1)Nc1nnc2n1CCS2; 5.19
O=C(CCc1ccccc1F)Nc1nnc2n1CCS2; 6.46
O=C(CCc1ccccc1)Nc1nnc2n1CCS2; 5.78
O=C(CCc1cccc(Cl)c1Cl)Nc1nnc2n1CCS2; 7.70
O=C(CCc1c(Cl)cccc1Cl)Nc1nnc2n1CCS2; 7.54
O=C(CCc1ccc(Cl)cc1Cl)Nc1nnc2n1CCS2; 6.94
O=C(CCCC1CCCCC1)Nc1nnc2n1CCS2; 5.34

Hello, please tell me recorded pIC50 for this one: O=C(CCc1ccco1)Nc1nnc2n1CCS2
5.27

Hello, please tell me recorded pIC50 for this one: O=C(CCc1ccccc1Cl)Nc1nnc2n1CCS2
7.30

* * *

assay: Hepatic extraction ratio in human liver microsomes; assay type: ADME, Microsome; conditions: read-out: ERH
hepatic extraction ratio values, listed per item
Form rule: numeric answer, no unit written next to it.

The cases that follow already have their hepatic extraction ratio on record.
O=C(CCC1CCCCC1)Nc1nnc2n1CCS2; 0.2
O=C(CCc1ccccc1Cl)Nc1nnc2n1CCS2; 0.66
CC(C)CC(=O)Nc1nnc2n1CCS2; 0.17

Hello, please tell me recorded hepatic extraction ratio for this one: CC(C)(C)c1ccc(C(=O)Nc2nnc3n2CCS3)cc1
0.36

Hello, please tell me recorded hepatic extraction ratio for this one: O=C(CCc1c(Cl)cccc1Cl)Nc1nnc2n1CCS2
0.61

Hello, please tell me recorded hepatic extraction ratio for this one: O=C(CCC1CCCC1)Nc1nnc2n1CCS2
0.68

* * *

target: Poly [ADP-ribose] polymerase tankyrase-2 (Homo sapiens, UniProt Q9H2K2)
# strict inequality: IC50 < 100 nM yields Fulfilled, everything else yields Not fulfilled

O=C(CCc1cccc(Cl)c1Cl)Nc1nnc2n1CCS2; Fulfilled
O=C(CCn1cncn1)Nc1nnc2n1CCS2; Not fulfilled
O=C(CCc1ccncc1)Nc1nnc2n1CCS2; Not fulfilled
O=C(CC1CCCCC1)Nc1nnc2n1CCS2; Fulfilled
CC(=O)Nc1nnc2n1CCS2; Not fulfilled

Next, consider the following compound.
Consider O=C(CC1CCOCC1)Nc1nnc2n1CCS2 . Does its IC50 lie strictly below 100 nM?
Not fulfilled

* * *

assay: Half life in C57BL/6 mouse at 1 mg/kg, iv; format: ADME, organism-based; design: dose 1 mg/kg, route intravenous; conditions: in vivo
Measured Metric: half-life (min)
Quick note: give the figure in min, leave out the unit.

Hello, please tell me recorded half-life for this one: CC(C)CC(=O)Nc1nnc2n1CCS2
6

* * *

pIC50 values, listed per item
Target: UniProtKB Q9H2K2
Sequence (Q9H2K2 whole entry): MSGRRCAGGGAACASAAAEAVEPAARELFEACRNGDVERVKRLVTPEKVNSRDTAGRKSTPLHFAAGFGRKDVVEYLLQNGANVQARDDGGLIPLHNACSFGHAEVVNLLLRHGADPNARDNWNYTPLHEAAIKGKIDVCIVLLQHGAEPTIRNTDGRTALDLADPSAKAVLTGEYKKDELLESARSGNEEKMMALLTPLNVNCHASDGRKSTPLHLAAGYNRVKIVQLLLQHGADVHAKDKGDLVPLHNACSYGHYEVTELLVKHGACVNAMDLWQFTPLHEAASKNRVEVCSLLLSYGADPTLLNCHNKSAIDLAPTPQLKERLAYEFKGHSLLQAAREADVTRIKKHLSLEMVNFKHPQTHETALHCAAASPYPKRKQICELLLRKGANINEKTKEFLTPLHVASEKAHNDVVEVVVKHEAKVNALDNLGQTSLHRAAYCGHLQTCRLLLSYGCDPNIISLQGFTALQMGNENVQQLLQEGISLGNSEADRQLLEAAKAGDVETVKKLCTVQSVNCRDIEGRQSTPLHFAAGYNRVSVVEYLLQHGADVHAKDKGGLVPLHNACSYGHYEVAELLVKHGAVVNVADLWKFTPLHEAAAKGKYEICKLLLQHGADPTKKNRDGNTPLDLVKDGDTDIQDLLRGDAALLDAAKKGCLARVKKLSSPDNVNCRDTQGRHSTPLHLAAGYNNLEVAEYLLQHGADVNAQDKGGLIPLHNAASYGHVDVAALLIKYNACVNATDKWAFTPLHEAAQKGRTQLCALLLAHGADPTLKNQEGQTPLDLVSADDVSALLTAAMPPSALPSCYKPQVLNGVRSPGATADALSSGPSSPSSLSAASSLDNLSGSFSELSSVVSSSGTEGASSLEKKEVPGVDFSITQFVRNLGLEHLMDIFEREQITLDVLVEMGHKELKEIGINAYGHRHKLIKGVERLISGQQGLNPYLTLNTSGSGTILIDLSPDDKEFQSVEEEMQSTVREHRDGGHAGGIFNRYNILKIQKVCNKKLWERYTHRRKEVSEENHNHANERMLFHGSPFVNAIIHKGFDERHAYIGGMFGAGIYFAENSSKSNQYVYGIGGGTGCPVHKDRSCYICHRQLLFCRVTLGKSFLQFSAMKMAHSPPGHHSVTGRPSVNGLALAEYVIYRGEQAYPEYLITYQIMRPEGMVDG
Test: Inhibition of N-terminal GST-tagged TNKS2 (unknown origin) expressed in baculovirus infected sf21 cells after 60 mins by LC-MS analysis
Scale note: pIC50 = -log10(concentration in M).

Hello, please tell me recorded pIC50 for this one: O=C(CCCC1CCCCC1)Nc1nnc2n1CCS2
7.05

Hello, please tell me recorded pIC50 for this one: O=C(CCC1CCNCC1)Nc1nnc2n1CCS2
5.63

Hello, please tell me recorded pIC50 for this one: O=C(Nc1nnc2n1CCS2)C1CCC1
6.58

Hello, please tell me recorded pIC50 for this one: O=C(CCc1ccccc1F)Nc1nnc2n1CCS2
7.92

* * *

experiment: Volume of distribution in iv dosed Sprague-Dawley rat; format: ADME, organism-based; details: in vivo
Measured Metric: Vd (L/kg)
Quick note: give the figure in L/kg, leave out the unit.

Hello, please tell me recorded Vd for this one: O=C(CCc1c(Cl)cccc1Cl)Nc1nnc2n1CCS2
1.1

* * *

assay: Cmax in C57BL/6 mouse at 1 mg/kg, iv; format: ADME, organism-based; parameters: dose 1 mg/kg, route intravenous; details: in vivo
Measured Metric: Cmax (µM)
Quick note: give the figure in µM, leave out the unit.

Hello, please tell me recorded Cmax for this one: CC(C)CC(=O)Nc1nnc2n1CCS2
19.1

* * *

test: Inhibition of Wnt signaling in human HEK293 cells by STF luciferase reporter gene assay
Measured Metric: pIC50
Scale note: pIC50 = -log10(concentration in M).

O=C(Cc1ccccc1)Nc1nnc2n1CCS2; 5.14
Cc1cccc(C)c1CCC(=O)Nc1nnc2n1CCS2; 5.92
O=C(CC1CCOCC1)Nc1nnc2n1CCS2; 4.99
CC(C)CC(=O)Nc1nnc2n1CCS2; 5.19
O=C(Nc1nnc2n1CCS2)C1CCC1; 4.86

Hello, please tell me recorded pIC50 for this one: CC(C)(C)c1ccc(C(=O)Nc2nnc3n2CCS3)cc1
5.62

* * *

test: Hepatic extraction ratio in mouse liver microsomes; assay type: ADME, Microsome; details: read-out: ERH
Measured Metric: hepatic extraction ratio
Form rule: numeric answer, no unit written next to it.

The cases that follow already have their hepatic extraction ratio on record.
O=C(CCC1CCCC1)Nc1nnc2n1CCS2; 0.91
O=C(CCc1c(Cl)cccc1Cl)Nc1nnc2n1CCS2; 0.91
O=C(CCc1ccccc1Cl)Nc1nnc2n1CCS2; 0.9
O=C(CCc1cccc(Cl)c1Cl)Nc1nnc2n1CCS2; 0.92

Now examine the next entry.
Hello, please tell me recorded hepatic extraction ratio for this one: O=C(CCc1ccc(Cl)cc1Cl)Nc1nnc2n1CCS2
0.91

Where do these numbers come from? They come from ChEMBL document CHEMBL2424545.
